- Test system: Jurkat
- runDescription: Induction of total cell death in human Jurkat cells containing GFP gene under control of TNF gene promoter at 100 uM incubated for 24 hrs by propidium iodide staining based assay
valueKind: Activity

Field: example entries. Status: answers known.
                                   compound  experimentalvalue
0  CC[C@H](C)[C@@H](C(=O)N/N=C\c1ccc(Cl)cc1)N1C(=O)c2ccccc2C1=O              Toxic
1  O=C(N/N=C\c1ccc(Cl)c(Cl)c1)[C@H](Cc1ccccc1)N1C(=O)c2ccccc2C1=O              Toxic
2  CC[C@H](C)[C@@H](C(=O)N/N=C\c1ccc(Cl)c(Cl)c1)N1C(=O)c2ccccc2C1=O              Toxic
3  O=C1CCC(N2C(=O)c3ccccc3C2=O)C(=O)N1 (stereo unspecified) [THALIDOMIDE]                 2%

Under Jurkat: Activity value of O=C(N/N=C\c1ccccc1)[C@H](Cc1ccccc1)N1C(=O)c2ccccc2C1=O ?
Toxic
